Items are presented alongside their recorded growth inhibition.
# System: SUDIPGIV (diffuse intrinsic pontine glioma line)
# Method description: growth inhibition (% activity, log2 RLU normalised to DMSO / staurosporine); higher = more growth inhibition
# Condition set: 33 µM
Dear colleague, please return just the value in %, with no unit written.

COC(=O)[C@@H]1CC2=CC(=O)CC[C@]2(C)[C@@]23O[C@@H]2C[C@@]2(C)[C@@H](CC[C@@]24CCC(=O)O4)[C@H]13 ... 0.898

Input CCOC(=O)[C@H](CCc1ccccc1)N[C@@H](C)C(=O)N1[C@H](C(=O)O)C[C@@H]2CCC[C@@H]21 . Output growth inhibition: -2.04

====

Consider the following compounds and their measured growth inhibition readings.
# Tested on: DIPGX29 (H3.3 K27M diffuse intrinsic pontine glioma line)
# Method description: growth inhibition (% activity, log2 RLU normalised to DMSO / staurosporine); higher = more growth inhibition
# Condition set: 33 µM
Please give a number only; it is taken to be in %.

Recorded growth inhibition, per entry:
Cc1cc(C#N)cc(C)c1Oc1nc(Nc2ccc(C#N)cc2)nc(N)c1Br ... 3.55
COC(=O)[C@H](Cc1ccccc1)NC(=O)[C@@H](N)CC(=O)O ... -2.32
Cc1ncc([N+](=O)[O-])n1CC(O)CCl (stereo unspecified) ... 1.6
COc1ccc(-c2nc3ccc(C4=NNC(=O)CC4C)cc3[nH]2)cc1 (stereo unspecified) ... 0.372
CN(C)CCC(c1ccccc1)c1ccccn1 (stereo unspecified) ... 1.43

response.value for CCN1CC(CCN2CCOCC2)C(c2ccccc2)(c2ccccc2)C1=O (stereo unspecified) (field: growth inhibition) = 3.26

====

# Test system: DIPGX37 (H3.3 K27M diffuse intrinsic pontine glioma line)
# Method description: growth inhibition (% activity, log2 RLU normalised to DMSO / staurosporine); higher = more growth inhibition
# Condition set: 33 µM
growth inhibition: recorded values
Your answer should be a plain number; it is taken to be in %.

Below, 4 compounds whose answers are already recorded.
Nc1c2ccccc2nc2ccccc12 ... 1.87
CN1CC(=O)N2[C@H](c3ccc4c(c3)OCO4)c3[nH]c4ccccc4c3C[C@@H]2C1=O ... 2.3
CCn1cc(C(=O)O)c(=O)c2cnc(N3CCCC3)nc21 ... -2.01
O=C(NC(Cc1cc(=O)[nH]c2ccccc12)C(=O)O)c1ccc(Cl)cc1 (centres undefined) ... 0.0807

The compound CC[C@]1(O)C[C@H]2CN(CCc3c([nH]c4ccccc34)[C@@](C(=O)OC)(c3cc4c(cc3OC)N(C=O)[C@H]3[C@@](O)(C(=O)OC)[C@H](OC(C)=O)[C@]5(CC)C=CCN6CC[C@]43[C@@H]65)C2)C1 showed growth inhibition equal to 12.5

growth inhibition measured on CC(=O)N[C@@H](CS)C(=O)O = 1.66

The recorded growth inhibition for CC(/C=C1\SC(=S)N(CC(=O)O)C1=O)=C\c1ccccc1 is -1.28

In plain terms, CCCCCCCCOc1ccccc1C(=O)Nc1ccc(C(=O)OCC[N+](C)(CC)CC)cc1 has a documented growth inhibition of -1.75

Lab note: measured growth inhibition of C[C@@H]1CN(c2c(F)c(N)c3c(=O)c(C(=O)O)cn(C4CC4)c3c2F)C[C@H](C)N1 was 1.71

====

Recorded growth inhibition, one value per entry.
# Test system: DIPGX29
# Method description: growth inhibition (% activity, log2 RLU normalised to DMSO / staurosporine); higher = more growth inhibition
# Condition set: 33 µM
Just the number please, in %, no unit attached.

CC#CCn1c(N2CCC[C@@H](N)C2)nc2c1c(=O)n(Cc1nc(C)c3ccccc3n1)c(=O)n2C ... -0.103
OC(CCN1CCCCC1)(c1ccccc1)c1ccccc1 ... -0.46
C[C@@]12C[C@@]3(O)O[C@@H](O1)[C@]1(COC(=O)c4ccccc4)[C@H]3C[C@@]12O[C@@H]1O[C@H](CO)[C@@H](O)[C@H](O)[C@H]1O ... -0.664
CCCc1cc(=O)[nH]c(=S)[nH]1 ... -0.542
CCCCCCOC(=O)NC(=N)c1ccc(NCc2nc3cc(C(=O)N(CCC(=O)OCC)c4ccccn4)ccc3n2C)cc1 ... 0.869
CCOc1ccc(NC(C)=O)cc1 ... 1.41

The compound CCn1cc(C(=O)O)c(=O)c2cc(F)c(N3CCN(C)CC3)cc21 on DIPGX29: growth inhibition was 0.946

growth inhibition on DIPGX29 for CCCCOc1ccc(OCCCN2CCOCC2)cc1 is 5.55

Reading of growth inhibition for C=Cc1c(C)c2cc3nc(cc4[nH]c(cc5nc(cc1[nH]2)C(C)=C5CCC(=O)O)c(CCC(=O)OC)c4C)C1(C)C3=CC=C(C(=O)OC)C1C(=O)OC (centres undefined) with DIPGX29: 0.0791

// assay DIPGX29, entry CC[C@H]1OC(=O)[C@H](C)[C@@H](O[C@H]2C[C@@](C)(OC)[C@@H](O)[C@H](C)O2)[C@H](C)[C@@H](O[C@@H]2O[C@H](C)C[C@H](N(C)C)[C@H]2O)[C@](C)(O)C[C@@H](C)/C(=N\OCOCCOC)[C@H](C)[C@@H](O)[C@]1(C)O , growth inhibition value = -1.55

Result for CCCCCCCCCCCCCCCCCCCCCCO , tested on DIPGX29, growth inhibition: 0.193

Observed growth inhibition on DIPGX29, entry CCOC(=O)[C@H](CCc1ccccc1)N[C@@H](C)C(=O)N1Cc2ccccc2C[C@H]1C(=O)O , equals 1.41

// returns growth inhibition for CO[C@@H]1[C@@H](OC(N)=O)[C@@H](O)[C@H](Oc2ccc3c(O)c(NC(=O)c4ccc(O)c(CC=C(C)C)c4)c(=O)oc3c2C)OC1(C)C with DIPGX29; value = -0.0643

Recorded values, source the supplement of paper PMC8253809.
